B1: CPEB3 Ribozyme (parent)
chain: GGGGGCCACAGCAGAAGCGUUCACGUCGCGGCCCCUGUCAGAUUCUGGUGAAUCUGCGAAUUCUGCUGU

Variants of: B1
Assay: self-cleavage, relative activity (ratio to wild type); higher = more cleavage; co-transcriptional
This listing pairs variants with measured self-cleavage.
Respond with the number and no other words.

The examples below pair each entry with its known result.
   mutation_key  obs_value
0     A59C U62C      0.407
1     U36C A40G      0.858
2     C18U C24A      0.416
3     G50A C57G      0.301
4      A8G G41A      0.222

The recorded self-cleavage for entry G41C U46A equals 0.921

The recorded self-cleavage for entry G14C U49G equals 0.689

The recorded self-cleavage for entry G14A A52C equals 0.688

This collection of values is drawn from the RNAGym collection of RNA variant scans (doi:10.7554/elife.80360).
